- assay_target: IRAK4 (Homo sapiens, UniProt Q9NWZ3)
- Sequence (Q9NWZ3 whole entry): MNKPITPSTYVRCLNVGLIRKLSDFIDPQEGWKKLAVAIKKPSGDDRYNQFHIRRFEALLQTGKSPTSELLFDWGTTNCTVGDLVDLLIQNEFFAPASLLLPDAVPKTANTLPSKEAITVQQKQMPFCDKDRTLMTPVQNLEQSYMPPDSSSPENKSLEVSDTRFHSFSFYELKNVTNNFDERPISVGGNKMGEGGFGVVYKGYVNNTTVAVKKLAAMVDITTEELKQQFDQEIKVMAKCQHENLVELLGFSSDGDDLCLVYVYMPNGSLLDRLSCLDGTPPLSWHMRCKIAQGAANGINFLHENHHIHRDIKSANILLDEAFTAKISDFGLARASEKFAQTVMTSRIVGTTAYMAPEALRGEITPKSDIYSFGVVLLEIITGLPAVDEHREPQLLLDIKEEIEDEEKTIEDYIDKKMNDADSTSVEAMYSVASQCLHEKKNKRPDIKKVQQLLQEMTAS
- procedure_summary: biochemical
pIC50: −log10 of the molar value.
recorded_metric: pIC50

1. CC(C)Oc1cc2nc(C34CCC(C)(C3)OC4)cn2cc1C(=O)Nc1nc(C(F)F)cs1 (stereo not shown); 8.82
2. CCOc1nc(C(=O)Nc2cccnc2OC)cn2cc(C34COC(C)(C3)C4)nc12; 8.28
3. CCOc1nc(C(=O)Nc2cccnc2OC)cn2cc(C3CCOC3)nc12 (stereo not shown); 8.33
4. CC(C)Oc1cc2nc(C3CC3)cn2cc1C(=O)Nc1cccc(C#N)n1; 8.35
5. CCOc1cc2nc(C(F)F)cn2cc1C(=O)Nc1cccc(C(F)F)n1; 9.30
6. CC(C)Oc1nc2nc(C34CCC(C)(CC3)OC4)cn2cc1C(=O)Nc1cnn2cccnc12; 9.10
7. CC(C)Oc1cc2nc([C@]34CC[C@H](C3)OC4)cn2cc1C(=O)Nc1ccn(C)n1 (single isomer, unassigned); 8.43
8. CC(C)Oc1nc(C(=O)Nc2cnn3cccnc23)cn2cc(C34COC(CF)(C3)C4)nc12; 8.17
9. CC(C)Oc1nc2nc(C34COC(CF)(C3)C4)cn2cc1C(=O)Nc1cccn(C(F)F)c1=O; 9.40
10. CCOc1nc(C(=O)Nc2cc(F)cn(C)c2=O)cn2cc([C@H]3CCCOC3)nc12 (single isomer, unassigned); 7.85
11. CC12CCC(c3cn4cc(C(=O)Nc5ccn(C(F)F)n5)c(OC5CCC5)cc4n3)(CO1)C2 (stereo not shown); 8.68
12. Cn1ccc(NC(=O)c2cn3cc(C45CCC(C)(C4)OC5)nc3cc2OC2CCCC2)n1 (stereo not shown); 8.74
13. CC12CCC(c3cn4cc(C(=O)Nc5cnn6cccnc56)c(OC5CCC5)cc4n3)(CO1)C2 (stereo not shown); 9.40
14. COc1nc(C(=O)Nc2cccc(C(F)F)n2)cn2cc(C34CCOC(C)(C3)C4)nc12; 8.28
15. CC(C)Oc1cc2nccn2cc1C(=O)Nc1cccc(C(F)F)n1; 7.94
16. Cc1cnc2c(NC(=O)c3cn4cc(C56COC(CF)(C5)C6)nc4c(F)c3OC(C)C)cnn2c1; 8.64

Where these numbers come from: patent US20230087118A1
